Provide the reported inhibition of each item.
system_under_test: MAP kinase-activated protein kinase 2 (Homo sapiens) (UniProt P49137);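 further: figures are mean inhibition values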
Sequence (P49137 whole entry, looked up): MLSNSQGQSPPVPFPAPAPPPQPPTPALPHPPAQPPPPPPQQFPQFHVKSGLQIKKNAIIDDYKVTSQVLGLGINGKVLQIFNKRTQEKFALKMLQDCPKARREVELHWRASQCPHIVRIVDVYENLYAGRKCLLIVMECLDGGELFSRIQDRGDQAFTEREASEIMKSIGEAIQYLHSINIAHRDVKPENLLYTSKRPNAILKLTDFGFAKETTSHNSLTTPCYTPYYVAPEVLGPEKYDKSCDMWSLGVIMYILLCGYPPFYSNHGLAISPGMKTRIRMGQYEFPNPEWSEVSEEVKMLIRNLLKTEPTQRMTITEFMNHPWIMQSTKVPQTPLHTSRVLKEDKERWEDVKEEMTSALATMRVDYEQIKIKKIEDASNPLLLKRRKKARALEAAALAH
measurement_conditions: at 0.1 µM

Query: Entry CCCN1CCCC(c2ccc(Nc3nc(Nc4cc(F)ccc4C(N)=O)c4cc[nH]c4n3)c(OC)c2)C1 (centres undefined) has what inhibition?
Reply: 2.17%

Query: Fill blank: measured inhibition of the compound CN1CCN(C(=O)c2ccc(NC(=O)Nc3ccc(N(C)c4ccnc(Nc5ccc(CS(C)(=O)=O)cc5)n4)cc3)cc2)CC1 is ____.
Reply: 0.81%

Query: Consider the compound shown here: OCc1ccc(-c2nc(-c3ccccn3)c(-c3ccc4c(c3)OCO4)[nH]2)cc1 What is its recorded inhibition?
Reply: 1.95%

Query: For the compound shown here, COC(=O)Nc1nc2cc(Oc3ccc(NC(=O)Nc4cccc(Br)c4)cc3)ccc2[nH]1 , give the reported inhibition.
Reply: 1.26%

----------
Please go through the items and note down their inhibition.
system_under_test: RAF proto-oncogene serine/threonine-protein kinase (Homo sapiens)
measurement_conditions: at 0.1 µM
Lab book: enter the figure in %, no units written.

Query: Given the entry O=C1Nc2ccccc2/C1=C/Nc1ccc2[nH]c(=O)[nH]c2c1 , what inhibition was observed with RAF proto-oncogene serine/threonine-protein kinase (Homo sapiens)?
Reply: 0.68

Query: Give RAF proto-oncogene serine/threonine-protein kinase (Homo sapiens) inhibition for Cc1nc(-c2ccccc2)n2nc(NCCCN3CCOCC3)ncc12
Reply: 8.88

Query: Could you share what inhibition was measured for O=C(Nc1ccc(Oc2ccc3[nH]c(NC(=O)c4ccco4)nc3c2)cc1)Nc1cc(C(F)(F)F)ccc1F , tested on RAF proto-oncogene serine/threonine-protein kinase (Homo sapiens)?
Reply: -0.98

Query: Please tell me: inhibition of NS(=O)(=O)c1ccc(Nc2cc(-c3cccc(O)c3)n[nH]2)cc1 , system RAF proto-oncogene serine/threonine-protein kinase (Homo sapiens)?
Reply: 1.44

Query: What is its inhibition for RAF proto-oncogene serine/threonine-protein kinase (Homo sapiens)? Entry: N#Cc1cccc(Nc2nccc(-c3cnn4ncccc34)n2)c1
Reply: -0.47

Query: Report inhibition for CS(=O)(=O)Nc1cccc(-c2ccc3c(NC(=O)C4CC4)n[nH]c3c2)c1 tested on RAF proto-oncogene serine/threonine-protein kinase (Homo sapiens).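 Further: values are mean CRAF kinase inhibition from profiling of the GSK Published Kinase Inhibitor Set.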
Reply: 8.26

Query: What measured inhibition is associated with COC(=O)Nc1nc2cc(Oc3ccc(NC(=O)Nc4cccc(Br)c4)cc3)ccc2[nH]1 on RAF proto-oncogene serine/threonine-protein kinase (Homo sapiens)?
Reply: -5.74

Query: Find inhibition (RAF proto-oncogene serine/threonine-protein kinase (Homo sapiens)) for the entry COc1ccc(-c2nn3ncccc3c2-c2ccnc(Nc3cccc(C(F)(F)F)c3)n2)cc1
Reply: -2.4

Query: Query the reported inhibition for RAF proto-oncogene serine/threonine-protein kinase (Homo sapiens); item: NS(=O)(=O)c1ccc(-c2cc3ccncc3cc2OCc2ccccc2)cc1
Reply: 2.9

Query: Look up inhibition with RAF proto-oncogene serine/threonine-protein kinase (Homo sapiens) for this compound: [O-][S+]1CCN(Cc2ccc(-c3ccc4ncnc(Nc5ccc(OCc6ccccc6)c(Cl)c5)c4c3)o2)CC1
Reply: -1.87

----------
system_under_test: RAC-gamma serine/threonine-protein kinase (Homo sapiens)
measurement_conditions: at 1 µM
Description: GSK_PKIS: AKT3 mean inhibition at 1 uM [Nanosyn]
Field: inhibition. Provide a value for each of the compounds that follow.
Express your answer in %, writing the number without its unit.

Query: Suppose we examine the compound CS(=O)(=O)Nc1cccc(-c2ccc3c(NC(=O)C4CC4)n[nH]c3c2)c1 ; what inhibition value has been reported?
Reply: -2.8

Query: Which inhibition is reported for this compound? Cc1ccc(Nc2ccnc(Nc3cccc(C(N)=O)c3)n2)cc1O
Reply: -1.07

Query: Find the recorded inhibition belonging to C[C@@H](Oc1cc(-n2cnc3ccc(OCC4CCN(C)CC4)cc32)sc1C(N)=O)c1ccccc1C(F)(F)F and report it.
Reply: 1.79

Query: Returns the measured inhibition for the input compound. Input: Cc1ccc2c(-c3ccnc(Nc4cccc(C(F)(F)F)c4)n3)c(-c3ccccc3)nn2n1
Reply: 4.19

Query: Tell me the measured inhibition of CCOc1nccc2c1nc(-c1nonc1N)n2CC , please.
Reply: 1.25

Query: Quick one: inhibition for NC(=O)c1cccc(Nc2nccc(Nc3cccc(F)c3)n2)c1 ?
Reply: 3.46

Query: Item under review: Cc1ccc(O)cc1Nc1ccnc2ccc(S(C)(=O)=O)cc12 . Reported inhibition?
Reply: 4.72

Query: // query inhibition value for entry COc1cccc(-n2ncc3c(N/N=C/c4ccc(S(C)(=O)=O)cc4)ncnc32)c1
Reply: -3.66

Query: # lookup: inhibition of c1ccc(Nc2ncc(-c3ccccc3)o2)cc1
Reply: 3.46

Query: Which measured inhibition value corresponds to NS(=O)(=O)c1cccc(-c2cc3ccncc3cc2OCc2ccccc2)c1 ?
Reply: 0.32

----------
Would you kindly list inhibition for each of these compounds?
system_under_test: Fibroblast growth factor receptor 1 (Homo sapiens) (UniProt P11362);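 further: values are the mean percent inhibition of FGFR1 across replicate measurements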
Sequence (P11362 22-822 limits assumed): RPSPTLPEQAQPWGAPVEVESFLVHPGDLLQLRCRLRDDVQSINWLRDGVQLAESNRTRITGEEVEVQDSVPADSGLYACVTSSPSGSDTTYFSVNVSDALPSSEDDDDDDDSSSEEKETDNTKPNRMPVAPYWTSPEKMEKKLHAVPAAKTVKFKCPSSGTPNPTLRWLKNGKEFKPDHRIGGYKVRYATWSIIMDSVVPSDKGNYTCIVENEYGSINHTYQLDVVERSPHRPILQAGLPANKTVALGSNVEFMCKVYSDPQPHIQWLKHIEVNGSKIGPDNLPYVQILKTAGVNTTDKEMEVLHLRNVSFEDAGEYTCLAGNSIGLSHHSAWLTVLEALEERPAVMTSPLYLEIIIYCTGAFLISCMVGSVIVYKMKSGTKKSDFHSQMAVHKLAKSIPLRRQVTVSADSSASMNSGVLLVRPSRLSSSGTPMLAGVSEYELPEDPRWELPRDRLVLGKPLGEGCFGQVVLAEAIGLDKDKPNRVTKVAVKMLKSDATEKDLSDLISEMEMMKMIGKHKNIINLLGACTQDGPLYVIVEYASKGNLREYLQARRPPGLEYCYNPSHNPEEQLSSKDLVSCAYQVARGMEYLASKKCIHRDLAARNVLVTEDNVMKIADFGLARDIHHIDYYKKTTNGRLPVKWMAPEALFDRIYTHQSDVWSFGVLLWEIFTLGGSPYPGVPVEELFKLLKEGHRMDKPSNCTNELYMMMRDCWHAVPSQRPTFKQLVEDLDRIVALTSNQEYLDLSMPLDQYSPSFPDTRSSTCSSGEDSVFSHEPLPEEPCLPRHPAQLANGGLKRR
measurement_conditions: at 1 µM
Hi! Could you send only the number? It should be in %, unit omitted.

Query: Query (compound): COc1cccc(-n2ncc3c(N/N=C/c4ccc(S(C)(=O)=O)cc4)ncnc32)c1 ; field requested: inhibition
Reply: 0.92

Query: Could you share which inhibition value was measured for Nc1nccc(-c2c(-c3ccc(F)cc3)ncn2CCCN2CCOCC2)n1 ?
Reply: 1.16

Query: Reported inhibition for COc1cc2ncnc(Nc3ccc4c(cnn4Cc4ccccc4)c3)c2cc1OC : what is it?
Reply: 3.82

Query: inhibition lookup needed for CN(C)C(=O)O[C@@H]1CN[C@@H](C#Cc2cc3ncnc(Nc4ccc(OCc5cccc(F)c5)c(Cl)c4)c3s2)C1 , thanks.
Reply: 1.69

Query: Report inhibition for Cc1ccc(O)cc1Nc1ccnc2ccc(S(C)(=O)=O)cc12 please.
Reply: 8.34

Query: // returns reported inhibition for input COc1cccc(-n2ncc3c(N/N=C/c4ccc(C)cc4)ncnc32)c1
Reply: 17.7

Query: Entry Cc1nc(-c2ccccc2)n2nc(NCCCN3CCOCC3)ncc12 has what inhibition?
Reply: -3.57

Query: Look at this compound and give its reported inhibition. NS(=O)(=O)c1cccc(-c2cc3ccncc3cc2OCc2ccccc2)c1
Reply: 10.7

Query: Endpoint output: inhibition of CS(=O)(=O)Nc1cccc(-c2ccc3c(NC(=O)C4CC4)n[nH]c3c2)c1 . Value?
Reply: 0.55

Query: // lookup inhibition for CCS(=O)(=O)c1ccc(OC)c(Nc2ncc(-c3cccc(OC)c3)o2)c1
Reply: 40.2

----------
system_under_test: Non-receptor tyrosine-protein kinase TYK2 (Homo sapiens) (UniProt P29597);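 further: each value is a mean of the inhibition readings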
Sequence (P29597 whole entry): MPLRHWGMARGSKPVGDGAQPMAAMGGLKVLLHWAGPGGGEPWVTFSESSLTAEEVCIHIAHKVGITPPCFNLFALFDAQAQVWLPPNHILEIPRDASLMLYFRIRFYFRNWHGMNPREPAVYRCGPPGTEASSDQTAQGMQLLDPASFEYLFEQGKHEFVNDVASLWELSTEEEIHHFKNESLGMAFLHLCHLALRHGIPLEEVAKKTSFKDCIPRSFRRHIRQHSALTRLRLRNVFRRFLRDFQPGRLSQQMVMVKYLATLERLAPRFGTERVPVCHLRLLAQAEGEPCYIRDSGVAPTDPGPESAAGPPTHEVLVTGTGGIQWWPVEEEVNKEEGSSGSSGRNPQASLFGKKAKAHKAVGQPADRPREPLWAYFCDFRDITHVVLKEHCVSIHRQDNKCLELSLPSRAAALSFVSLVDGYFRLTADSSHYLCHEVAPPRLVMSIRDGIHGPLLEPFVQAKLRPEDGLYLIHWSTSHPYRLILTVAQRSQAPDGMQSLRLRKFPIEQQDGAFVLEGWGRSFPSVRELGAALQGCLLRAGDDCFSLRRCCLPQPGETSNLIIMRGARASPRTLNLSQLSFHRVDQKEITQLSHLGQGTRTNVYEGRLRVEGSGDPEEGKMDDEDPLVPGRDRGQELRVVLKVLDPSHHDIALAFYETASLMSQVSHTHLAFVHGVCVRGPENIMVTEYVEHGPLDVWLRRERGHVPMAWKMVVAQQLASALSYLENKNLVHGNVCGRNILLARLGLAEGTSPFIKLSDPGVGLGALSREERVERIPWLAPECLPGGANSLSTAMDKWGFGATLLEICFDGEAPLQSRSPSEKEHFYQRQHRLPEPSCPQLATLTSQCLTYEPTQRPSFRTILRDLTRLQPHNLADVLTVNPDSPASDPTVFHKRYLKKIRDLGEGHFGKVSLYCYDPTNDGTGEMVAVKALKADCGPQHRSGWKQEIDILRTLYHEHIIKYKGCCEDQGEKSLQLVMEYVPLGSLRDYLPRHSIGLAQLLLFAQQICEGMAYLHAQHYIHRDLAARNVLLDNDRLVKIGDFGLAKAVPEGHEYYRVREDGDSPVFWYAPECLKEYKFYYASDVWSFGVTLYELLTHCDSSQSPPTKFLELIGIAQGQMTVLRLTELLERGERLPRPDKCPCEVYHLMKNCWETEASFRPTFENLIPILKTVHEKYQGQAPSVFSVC
measurement_conditions: at 0.1 µM
So I've got a bunch of compounds here, and I need their inhibition values.
Write the answer as a number in %, unit excluded.

Query: Form field: reported inhibition of CCS(=O)(=O)c1ccc(OC)c(Nc2ncc(-c3cccc(OC)c3)o2)c1
Reply: -5.06

Query: GET /values?readout=inhibition&item= CN(C)C(=O)O[C@H]1CN[C@H](C#Cc2cc3ncnc(Nc4ccc(OCc5cccc(F)c5)c(Cl)c4)c3s2)C1
Reply: -7.95

Query: Please report the recorded inhibition for NS(=O)(=O)c1ccc(Nc2cc(-c3cccc(O)c3)n[nH]2)cc1 .
Reply: -9.08

Query: Give the measured inhibition of COc1cc2ncnc(Nc3ccc(C)c(O)c3)c2cc1OC .
Reply: -5.98

Query: Which inhibition is listed for NC(=O)c1sc(-n2cnc3ccccc32)cc1OCc1ccccc1Br ?
Reply: -1.33

Query: Request the reported inhibition associated with CN(C)CCCn1c(-c2nonc2N)nc2cnccc21
Reply: -2.99

Query: Look up inhibition: Nc1nccc(-c2c(-c3ccc(F)cc3)ncn2CCCN2CCOCC2)n1
Reply: -3.95

Query: # query: inhibition of entry Cc1ccc2c(-c3ccnc(Nc4ccc5c(c4)OCCO5)n3)c(-c3ccc(C(F)(F)F)cc3)nn2n1
Reply: -0.28

Query: Requested read-out: inhibition. Entry: NS(=O)(=O)c1ccc(-c2cc3ccncc3cc2OCc2ccccc2)cc1
Reply: -3.96

Query: Item CN1CCN(C(=O)c2ccc(NC(=O)Nc3ccc(N(C)c4ccnc(Nc5ccc(CS(C)(=O)=O)cc5)n4)cc3)cc2)CC1 has what recorded inhibition?
Reply: -4.74

Query: I have this compound here, COc1cc(/C=N/Nc2ncnc3c2cnn3C(C)C)ccc1O , and I need its recorded inhibition.
Reply: 0.13

Query: Can you share its inhibition? I mean this compound: N#Cc1c(NC(=O)c2ccccc2F)sc2c1CCCC2
Reply: 2.79

Query: I'd like to know its inhibition. The compound in question is CCn1c(-c2nonc2N)nc2ccc(F)cc21
Reply: -3.66

Query: I'd like to know its inhibition. The compound in question is COc1ccc(-c2nn3ncccc3c2-c2ccnc(Nc3cccc(C(F)(F)F)c3)n2)cc1
Reply: 0.38

Query: Data request, read-out inhibition, for Nc1ccc(C#Cc2cncnc2Nc2ccc(OCc3cccc(F)c3)c(Cl)c2)cc1
Reply: 0.67

Query: For the compound Cc1ccc2c(c1)/C(=N/Nc1ccc(S(N)(=O)=O)cc1)C(=O)N2 , what inhibition is on record?
Reply: 1.2

Query: Give the measured inhibition of NS(=O)(=O)c1ccc(N/N=C2\C(=O)Nc3ccc(Cl)cc32)cc1 .
Reply: -4.4

Query: For the compound shown here, COc1cccc(-n2ncc3c(N/N=C/c4ccc(S(C)(=O)=O)cc4)ncnc32)c1 , give the reported inhibition.
Reply: -0.06

Query: Which inhibition reading was recorded for the compound Cc1cc(-c2ccccn2)cc(C)c1/C=C/c1cncc(-c2nn[nH]n2)c1 ?
Reply: -2.23

Query: Quick check: inhibition of c1ccc(Nc2ncc(-c3ccccc3)o2)cc1 ?
Reply: -2.68

Query: inhibition lookup needed for CCOc1nccc2c1nc(-c1nonc1N)n2CC , thanks.
Reply: -0.93

Query: Consider the compound COc1cc2ncnc(Nc3ccc4c(cnn4Cc4ccccc4)c3)c2cc1OC and give its measured inhibition.
Reply: -1.09
